The reported measurements were obtained from paper PMC7489219.

Recorded inhibition at 10 µM values for a group of molecules are listed next.
- Test system: primary mouse cortical neurons
- Construct: primary cortical neurons, DIV 10
- ASSAY_NOTES: cells
- Design: Protection from NMDA-induced (30 uM, 10 min) neuronal death; Hoechst nuclear morphology by automated microscopy
- CONDITION_SUMMARY: Cortical neurone, 20 h, read-out: % inhibition, inhibition of NMDA-induced cell death (protection score), 30 min pre-treatment
REPORTED_METRIC: inhibition at 10 µM (%)

                                   molecule      reported_metric  u  endpoint_value
0  Nc1cc(C(Cl)=C(Cl)Cl)c(S(N)(=O)=O)cc1S(N)(=O)=O  inhibition at 10 µM  %           -1.66
1  CC[N+](CC)(CC)CCOc1cccc(OCC[N+](CC)(CC)CC)c1OCC[N+](CC)(CC)CC [Gallamine triethiodide (Flaxedil)]  inhibition at 10 µM  %           -8.46
2  CCCCC1=NC2(CCCC2)C(=O)N1Cc1ccc(-c2ccccc2-c2nnn[nH]2)cc1  inhibition at 10 µM  %           0.237
3  C[C@H]1C[C@@H]2[C@H]([C@@H](O)C[C@@]3(C)[C@H]2CC[C@]3(O)C(=O)CO)[C@@]2(C)C=CC(=O)C=C12  inhibition at 10 µM  %            7.52
